Each entry below carries its reported pIC50.
- Test system: non-small cell lung carcinoma cell strain H1975 (EGFR L858R/T790M mutation)
- ASSAY_DETAILS: In-vitro tumor cell proliferation inhibition, MTT
- Type: cell-based, human
- STUDY_CONDITIONS: 72 hours
Please keep in mind that pIC50 is minus log10 of the molar concentration; only the number is needed.

CHEMICAL_STRUCTURE | pIC50
CN1CCN(c2ccc(Nc3ncc4nc(Nc5ccccc5)n(C5CCCC5)c4n3)cc2)CC1 | 6.43
CN1CCN(c2ccc(Nc3ncc4nc(Nc5ccc(Br)cc5F)n(C5CCCC5)c4n3)cc2)CC1 | 6.05

Next molecule, please.
Sample `C=CC(=O)Nc1cccc(Nc2ncc3nc(Nc4ccccc4)n(C(C)C)c3n2)c1` — what was its pIC50?
6.19
